// provenance: PubChem BioAssay (NCI)

tested on: SNB-19 CNS; assay: NCI-60 one-dose screen, 48 h (100 = growth as untreated, 0 = no growth, -100 = all killed); conditions: 10 µM unless noted
This is part of a sample that, as a whole, favours compounds with a hit. Of some 83,000 tested, about 20% had one in any assay.
Quantity Name: growth (%)
Give the value in % but do not write % after it.

# get_value(readout='growth', item= O=C(N=c1n(-c2ccccc2)nc2n1CCN2C1=NCCN1)c1ccc(Cl)cc1 ) 91.9

Also, COc1cc2c(c(OC)c1OC)-c1ccc(NNC(N)=S)c(=O)cc1[C@@H](NC(C)=O)CC2 please. 42.3

Also, CC(C)CCSc1nc(N)nc2nc[nH]c12 please. 93.3

Also, COc1cc(C(=O)/C=C/c2c(-c3ccc(F)cc3)nc3sccn23)cc(OC)c1OC please. 10

Also, Cc1ccc2c(c1)C(C)Cc1c(Cl)ncnc1N2C (stereo unspecified) please. 30.4

Also, CCCCCCCCN(CCCCCCCC)CC(O)c1ccc(Cl)c(C)c1Cl (stereo unspecified) please. 93.2
